Measured log10 of IC50, listed per entry.
# ASSAY SYSTEM: UniProtKB P43119
# Sequence (P43119 whole entry): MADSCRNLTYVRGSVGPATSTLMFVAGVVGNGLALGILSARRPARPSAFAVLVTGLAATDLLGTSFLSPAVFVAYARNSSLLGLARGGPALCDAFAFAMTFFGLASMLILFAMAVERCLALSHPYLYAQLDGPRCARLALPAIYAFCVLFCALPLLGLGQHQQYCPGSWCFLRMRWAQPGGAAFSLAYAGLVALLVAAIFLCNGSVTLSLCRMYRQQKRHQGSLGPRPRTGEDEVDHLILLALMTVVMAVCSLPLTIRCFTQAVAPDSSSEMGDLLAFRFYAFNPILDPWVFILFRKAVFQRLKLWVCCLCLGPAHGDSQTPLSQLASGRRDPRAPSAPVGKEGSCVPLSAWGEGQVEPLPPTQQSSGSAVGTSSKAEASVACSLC
# PROTOCOL DETAILS: Displacement of [3H]iloprost from Prostaglandin I2 receptor of human platelets
Short version: log10 scale, IC50, nM.

Worked examples follow.
C/C(C[C@@H]1CCc2c(cccc2OCC(=O)O)C1)=N\OC(c1ccccc1)c1ccccc1	3.34
C/C(CC1CCc2c(cccc2OCC(=O)O)C1)=N\OC(c1ccccc1)c1ccccc1 (stereo not given)	2.58
C/C(CC1CCc2c(cccc2OCC(=O)O)C1)=N\OCc1ccccc1 (stereo not given)	3.72
CCC/C(CCC1CCCc2c(OCC(=O)O)cccc21)=N\OC(c1ccccc1)c1ccccc1 (stereo not given)	3.32

Which log10 of IC50 value belongs to CCC/C(CC1CCc2c(cccc2OCC(=O)O)C1)=N\OC(c1ccccc1)c1ccccc1 (stereo not given) [AP-227] ?
2.18
